TARGET_UNDER_TEST: human CD28 (human, UniProt P10747 19-220)
ASSAY_PROCEDURE: cell-based or functional assay
Threshold check on Luciferase assay (EC50): strictly below 70 nM is fulfilled; on or above 70 nM is not fulfilled.

[[record]]
binder = "1h-79-30 (other) VL: DIQMTQSPSSLSASVGDRVTITCRASQPIGHSFGWYQQKPGKAPKLLIYWASMLQSGVPSRFSGSGSGTDFTLTISSLQPEDFATYYCQQMLRTPFSFGQGTKVEIKR"
assigned_label = "not fulfilled"

[[record]]
binder = "1h-93-201 (other) VH: EVQLLESGGGLVQPGGSLRLSCAASGFTFSVSEMAWVRQAPGKGLEWVSSIMSNGIRTYYADSVKGRFTISRDNSKNTLYLQMNSLRAEDTAVYYCARRESSSSRTVFDYWGQGTLVTVSS"
assigned_label = "not fulfilled"

[[record]]
binder = "1h-239-837 (other) VL: DIQMTQSPSSLSASVGDRVTITCRASQSIYPFLEWYQQKPGKAPKLLIYFTSRLASGVPSRFSGSGSGTDFTLTISSLQPEDFATYYCLQNVTNPATFSQGTKVEIKR"
assigned_label = "fulfilled"

[[record]]
binder = "1h-207 (other) VL: DIQMTQSPSSLSASVGDRVTITCRASQYIGTSLAWYQQKPGKAPKLLIYHSSGLQSGVPSRFSGSGSGTDFTLTISSLQPEDFATYYCQQTALRPFTFGQGTKVEIKR"
assigned_label = "not fulfilled"

[[record]]
binder = "1h-99-269 (other) VH: EVQLLESGGGLVQPGGSLRLSCAASGFTFKSANMSWVRQAPGKGLEWVSWIEASGVQTFYADSVKGRFTISRDNSKNTLYLQMNSLRAEDTAVYYCAKSPFGPLYGFDYRGQGTLVTVSS"
assigned_label = "fulfilled"

[[record]]
binder = "1h-239-838 (other) VL: DIQMTQSPSSLSASVGDRVTITCQASQSIYPFLEWYQQKPGKAPKLLIYFTSRLARGVPSRFSGSGSGTDFTLTISSLQPEDFATYYCLQNVTNPATFSQGTRVEIKR"
assigned_label = "fulfilled"

[[record]]
binder = "1h-239-816 (other) VL: DIQMTQSPSSLSASVGDRVTITCRASRTIYPFLEWYQQKPGKAPKLLIYFTSRLQSGVPSRFSGSGSGTDFTLTISSLQPEDFATYYCLQNVTNPATFSQGTKVEIKR"
assigned_label = "fulfilled"

[[record]]
binder = "1h-99-275 (other) VH: EVQLLESGGGLVQPGGSLRLSCAASGFTFKDKNMSWARQAPGKGLEWVSWIEDTGTQTFYADSVKGRFTISRDNSKNTLYLQMNSLRAEDTAVYYCARSPFGPLYGFDYRGQGTLVTVSS"
assigned_label = "fulfilled"

[[record]]
binder = "1h-99-243 (other) VH: EVQLLESGGGLVQPGGSLRLSCAASGFTFDSANMSWGRQAPGKGLEWVSWIEASGVQTFYADSVKGRFTISRDNSKNTLYLQMNSLRAEDTAVYYCAKSPFGPLYGFDYRGQGTLVTVSS"
assigned_label = "fulfilled"

[[record]]
binder = "1h-99-278 (other) VH: EVQLLESGGGLVQPGGSLRLSCAASGFTFPHSNMSWARQAPGKGLEWVSWIEDTGTQTFYADSVKGRFTISRDNSKNTLYLQMNSLRAEDTAVYYCAKSPFGPLYGFDYRGQGTLVTVSS"
assigned_label = "fulfilled"

[[record]]
binder = "1h-239-828 (other) VL: DIQMTQSPSSLSASVGDRVTITCRASQSIYPFLEWYQQKPGKAPKLLIYFTSRLREGVPSRFSGSGSGTDFTLTISSLQPEDFATYYCLQNVTNPATFSQGTKVEIKR"
assigned_label = "fulfilled"

[[record]]
binder = "1h-18-1 (other) VL: DIQMTQSPSSLSASVGDRVTITCRASQYIGTSLNWYQQKPGKAPKLLTYQASFLQSGVPSRFSGSGSGTDFTLTISSLQPEDFATYYCQQLALRPMTFGQGTKVEIKR"
assigned_label = "not fulfilled"

[[record]]
binder = "1h-33 (other) VL: DIQMTQSPSSLSASVGDRVTITCRASSNIHNRLNWYQQKPGKAPKLLIYAASSLQSGVPSRFSGSGSGTDFTLTISSLQPEDFATYYCRQWIQPPWTFGQGTKVEIKR"
assigned_label = "not fulfilled"

[[record]]
binder = "1h-239-857 (other) VL: DIQMTQSPSSLSASVGDRVTITCRASQSIYPFLEWYQQKPGKAPKLLIYFTSRLAAGVPSRFSGSGSGTDFTLTISSLQPEDFATYYCLQNVTNPAAFSQGTKVEIKR"
assigned_label = "fulfilled"

[[record]]
binder = "1h-99-236 (other) VH: EVQLLESGGGLVQPGGSLRLSCAASGFTFDSANMSWVRQAPGKGLEWVSWIEAPGKQTFYADSVKGRFTISRDNSKNTLYLQMNSLRAEDTAVYYCAKSPFGPLYGFDYRGRGTLVTVSS"
assigned_label = "fulfilled"


Numbers sourced from patent US20130109846A1.
